Test: log P by HPLC (OECD Guideline 117), method [a] acidic range
Format: physicochemical
Details: HPLC, method [a] acidic range
Let's look at some molecules and their measured logP[a].

Solved entries (count: 5):
{"molecule": "Cc1cc(F)c(-n2nnn(-c3ccc(C(F)(F)F)cc3)c2=O)cc1[S+]([O-])CC(F)(F)F (racemic)", "logP[a]": 3.75}
{"molecule": "COc1nn(-c2cc([S+]([O-])CC(F)(F)F)c(Br)cc2F)c(=O)n1C (stereo not drawn)", "logP[a]": 2.21}
{"molecule": "Cc1cc(F)c(-n2nc(C(F)(F)F)n(N)c2=O)cc1[S+]([O-])CC(F)(F)F (stereo not drawn)", "logP[a]": 2.19}
{"molecule": "Cc1cc(F)c(-n2nc(C3CCC3)n(C3CC3)c2=O)cc1[S+]([O-])CC(F)(F)F (racemic)", "logP[a]": 2.72}
{"molecule": "C=C(C)CCOc1nn(-c2ccc(C)c(SCC(F)(F)F)c2)c(=O)n1C1CC1", "logP[a]": 5.01}

Prompt: Assign logP[a] to the following record: Cc1cc(C)c([S+]([O-])CC(F)(F)F)cc1-n1nnn(C)c1=O (racemic)
Completion: 1.96
